FYI, the data here is from patent US20060063764A1.

# System: German cockroaches (Blatella Germanica)
# assay.remarks: Cockroach repellency on partially treated melamine-formaldehyde laminate surface (harbourage choice test)
# Format: in vivo
# measurement.context: 2 days after treatment; 20 mg/m^2
measure.name: Percentage Present on untreated section (%)
Field format: number, assumed %, no unit text.

Please review the following examples before continuing.
CC(C)[C@@H]1CC[C@@H](C)C[C@H]1OC(=O)N1CCOCC1 :: 82.5
CC(C)[C@@H]1CC[C@@H](C)C[C@H]1OC(=O)Nc1ccccc1 :: 96.3
CC(C)[C@@H]1CC[C@@H](C)C[C@H]1OC(=O)N1CCCCC1 :: 88.7

**Q:** Name the recorded Percentage Present on untreated section of CNC(=O)O[C@@H]1C[C@H](C)CC[C@H]1C(C)C [drawing 13] , assay system German cockroaches (Blatella Germanica).
**A:** 97.5

**Q:** Name the recorded Percentage Present on untreated section of "CC(C)CNC(=O)O[C@@H]1C[C@H](C)CC[C@H]1C(C)C" , assay system German cockroaches (Blatella Germanica).
**A:** 82.5

###

# Test system: German cockroaches (Blatella Germanica)
# assay.remarks: Cockroach repellency on partially treated melamine-formaldehyde laminate surface (harbourage choice test)
# Type: in vivo
# measurement.context: 2 days after treatment; 20 mg/m^2
measure.name: Percentage Present on untreated section (%)
Field format: number, assumed %, no unit text.

CCCCNC(=O)O[C@@H]1C[C@H](C)CC[C@H]1C(C)C :: 82.5
CCN(CC)C(=O)O[C@@H]1C[C@H](C)CC[C@H]1C(C)C :: 97.5
COC(=O)CCNC(=O)O[C@@H]1C[C@H](C)CC[C@H]1C(C)C :: 97.5

// below: Percentage Present on untreated section requested for another compound
**Q:** Give me measured Percentage Present on untreated section, please, for this compound: "CC(C)[C@@H]1CC[C@@H](C)C[C@H]1OC(=O)N1CCCC1"
**A:** 92.5

###

# Test system: German cockroaches (Blatella Germanica)
# assay.remarks: Cockroach repellency on partially treated melamine-formaldehyde laminate surface (harbourage choice test)
# Format: in vivo
# measurement.context: Average of days 1, 2, 3; 20 mg/m^2
# Percentage Present on untreated section, Average annotations
Field format: number, assumed %, no unit text.

Please review the following examples before continuing.
CC(C)[C@@H]1CC[C@@H](C)C[C@H]1OC(=O)N1CCOCC1 :: 80.0
CC(C)[C@@H]1CC[C@@H](C)C[C@H]1OC(=O)N1CCCC1 :: 92.4
CC(C)[C@@H]1CC[C@@H](C)C[C@H]1OC(=O)Nc1ccccc1 :: 97.1
CNC(=O)O[C@@H]1C[C@H](C)CC[C@H]1C(C)C [drawing 13] :: 97.0

// below: Percentage Present on untreated section, Average requested for another molecule
**Q:** Give me measured Percentage Present on untreated section, Average, please, for this molecule: "COC(=O)CCNC(=O)O[C@@H]1C[C@H](C)CC[C@H]1C(C)C"
**A:** 92.0

###

# System: German cockroaches (Blatella Germanica)
# assay.remarks: Cockroach repellency on partially treated melamine-formaldehyde laminate surface (harbourage choice test)
# Assay type: in vivo
# measurement.context: Average of days 1, 2, 3; 20 mg/m^2
measure.name: Percentage Present on treated section, Average
Answer as a quantity: numeral, then unit.

**Q:** Give me measured Percentage Present on treated section, Average, please, for this compound: "CC(C)[C@@H]1CC[C@@H](C)C[C@H]1OC(=O)Nc1ccccc1"
**A:** 2.9%

**Q:** Give me measured Percentage Present on treated section, Average, please, for this compound: "CC(C)[C@@H]1CC[C@@H](C)C[C@H]1OC(=O)N1CCCCC1"
**A:** 8.4%

###

# Test system: German cockroaches (Blatella Germanica)
# assay.remarks: Cockroach repellency on partially treated melamine-formaldehyde laminate surface (harbourage choice test)
# Type: in vivo
# measurement.context: Average of days 1, 2, 3; 20 mg/m^2
# Description: The effectiveness of compounds of formula I as insect repellents is determined using German cockroaches exposed to a melamine-formaldehyde laminate surface partially treated/partially untreated with a test compound of formula I. […] At 1, 2 and 3 days after cockroach introduction the number of cockroaches under each harbourage was counted. […]
# Percentage Present on untreated section, Average annotations
Answer as a quantity: numeral, then unit.

Please review the following examples before continuing.
CC(C)CNC(=O)O[C@@H]1C[C@H](C)CC[C@H]1C(C)C :: 78.3%
CCN(CC)C(=O)O[C@@H]1C[C@H](C)CC[C@H]1C(C)C :: 95.8%
CC(C)[C@@H]1CC[C@@H](C)C[C@H]1OC(=O)N1CCCCC1 :: 91.6%

// below: Percentage Present on untreated section, Average requested for another molecule
**Q:** Give me measured Percentage Present on untreated section, Average, please, for this molecule: "CCCCNC(=O)O[C@@H]1C[C@H](C)CC[C@H]1C(C)C"
**A:** 89.6%

###

# Percentage Present on treated section, Average annotations
# Test system: German cockroaches (Blatella Germanica)
# assay.remarks: Cockroach repellency on partially treated melamine-formaldehyde laminate surface (harbourage choice test)
# Type: in vivo
# measurement.context: Average of days 1, 2, 3; 20 mg/m^2
Field format: number, assumed %, no unit text.

CC(C)CNC(=O)O[C@@H]1C[C@H](C)CC[C@H]1C(C)C :: 21.7
CC(C)[C@@H]1CC[C@@H](C)C[C@H]1OC(=O)N1CCCC1 :: 7.6
CCN(CC)C(=O)O[C@@H]1C[C@H](C)CC[C@H]1C(C)C :: 4.2

**Q:** Give me measured Percentage Present on treated section, Average, please, for this compound: "COC(=O)CCNC(=O)O[C@@H]1C[C@H](C)CC[C@H]1C(C)C"
**A:** 8.0

**Q:** Give me measured Percentage Present on treated section, Average, please, for this compound: "CC(C)[C@@H]1CC[C@@H](C)C[C@H]1OC(=O)N1CCOCC1"
**A:** 20.0

**Q:** Give me measured Percentage Present on treated section, Average, please, for this compound: "CCCCNC(=O)O[C@@H]1C[C@H](C)CC[C@H]1C(C)C"
**A:** 10.5

**Q:** Give me measured Percentage Present on treated section, Average, please, for this compound: CNC(=O)O[C@@H]1C[C@H](C)CC[C@H]1C(C)C [drawing 13]
**A:** 3.0
